Attribution: patent US20250154202A1

# experimental_details: Pharmacokinetic study in mouse, intravenous bolus, plasma LC-MS/MS, non-compartmental analysis
# condition: in vivo, iv, 3 mg/kg
Bridge positions count the residues as written; N and C are the ends. Peptide text beside a SMILES is read from it.
value_kind: clearance (mL/min/kg)
Please state the figure in mL/min/kg; there is no need to write the unit.

Query string: Entry CC(=O)N1CCC[C@H]1C(=O)N[C@@H](CO)C(=O)N[C@@H](CCCNC(=N)N)C(=O)N[C@@H](CC(C)C)C(=O)N[C@@H](CCC(=O)O)C(=O)N[C@H]1CCC(=O)NCCCC[C@@H](C(=O)N[C@@H](CCCNC(=N)N)C(=O)N[C@@H](CC(C)C)C(=O)N[C@H](C(=O)N[C@@H](CCC(=O)O)C(N)=O)[C@@H](C)O)NC(=O)[C@H](CCCNC(=N)N)NC(=O)[C@H](CC(C)C)NC(=O)[C@H](CCC(=O)O)NC1=O [SD15341] (Ac-PSRLEEELRKRLTE-NH2; lactam 6-10) has what clearance?
Result string: 52.8
